So I've got a bunch of binders here, and I need their Fold IC50 increase relative to wild-type values.
# SYSTEM: HIV-1 JR-CSF Env N276A (HIV-1 JR-CSF) (UniProt P20871)
# ASSAY_SUMMARY: cell-based or functional assay
API: value field is a number in fold; no unit string.

Kindly indicate its recorded Fold IC50 increase relative to wild-type. Item: PGT-125 (antibody, V domains shown) VH: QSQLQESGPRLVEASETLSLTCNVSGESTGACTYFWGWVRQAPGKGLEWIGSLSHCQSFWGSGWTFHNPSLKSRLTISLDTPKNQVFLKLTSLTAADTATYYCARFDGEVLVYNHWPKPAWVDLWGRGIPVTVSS VL: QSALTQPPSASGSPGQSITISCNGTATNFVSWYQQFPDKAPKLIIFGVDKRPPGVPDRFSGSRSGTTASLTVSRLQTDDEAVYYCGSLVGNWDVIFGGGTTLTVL
0.9

Kindly indicate its recorded Fold IC50 increase relative to wild-type. Item: PGT-135 (antibody, V domains shown) VH: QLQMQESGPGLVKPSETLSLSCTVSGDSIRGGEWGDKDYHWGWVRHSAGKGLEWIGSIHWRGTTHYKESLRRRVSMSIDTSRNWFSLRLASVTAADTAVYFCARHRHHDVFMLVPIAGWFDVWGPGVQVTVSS VL: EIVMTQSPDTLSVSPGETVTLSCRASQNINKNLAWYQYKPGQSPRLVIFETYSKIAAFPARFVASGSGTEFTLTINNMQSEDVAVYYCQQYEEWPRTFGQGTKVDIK
2.5

Kindly indicate its recorded Fold IC50 increase relative to wild-type. Item: PGT-123 (antibody, V domains shown) VH: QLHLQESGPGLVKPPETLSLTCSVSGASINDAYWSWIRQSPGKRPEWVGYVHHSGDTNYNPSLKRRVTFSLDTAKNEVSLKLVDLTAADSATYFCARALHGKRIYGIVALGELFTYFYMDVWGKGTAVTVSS VL: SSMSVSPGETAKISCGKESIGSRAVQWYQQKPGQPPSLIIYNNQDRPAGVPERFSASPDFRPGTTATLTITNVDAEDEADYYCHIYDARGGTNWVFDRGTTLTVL
1.1

// data source = patent US20200024330A1
